For each record, write down the corresponding TGI.
system: M14 melanoma; assay: NCI tumour cell line growth inhibition, 48 h

Recorded TGI of CS(=O)(=O)c1nc(-c2cc3c(c(S(C)(=O)=O)n2)CCC3)cc2c1CCCCC2 , please. > 100 µM

Recorded TGI of COc1ccc(CN2c3ccccc3Sc3ccccc32)c(F)c1 , please. > 100 µM

Recorded TGI of COc1ccc(C2=CC(c3ccc4c(c3)OCO4)c3c(c4ccccc4oc3=O)O2)cc1OC (stereo not given) , please. > 100 µM

Recorded TGI of C1=NCCN2CCN(CCN=Cc3ccc(cc3)OCc3cccc(n3)COc3ccc1cc3)CC2 , please. > 50 µM

Recorded TGI of O=c1[nH]c2cc(Cl)ccc2nc1/C(=N\O)C(O)c1cccc([N+](=O)[O-])c1 (stereo not given) , please. > 100 µM

====

test system: RXF 393 renal; experiment: NCI tumour cell line growth inhibition, 48 h
measured-property: TGI

Recorded TGI of CCc1c2c([nH]c(=S)c1C#N)CCC2 , please. > 100 µM

Recorded TGI of Nc1c(C(=O)c2cccc(-c3ccncc3)c2)cnn1-c1ccc(F)cc1F , please. > 25 µM

Recorded TGI of O=[N+]([O-])O.[Cu+2].[NH-]CC[NH-].[NH-]CC[NH-] , please. > 10 µM

Recorded TGI of C=C1CCC2C3(C)COC(c4ccc(N(C)C)cc4)OC3CCC2(C)C1C/C=C1/C(=O)OCC1O (centres undefined) , please. 4.06 µM

Recorded TGI of O=C(O)CNC(=O)c1ccc(-c2ccccc2)cc1 , please. > 100 µM

Recorded TGI of C=CCNC(=O)NC(=O)CSC1=NNC2(C(=O)N1)c1ccccc1-c1ccccc12 , please. > 10 µM

Recorded TGI of O=C(c1cccs1)N(C(=S)N1CCN(c2ccccn2)CC1)c1ccccc1 , please. > 100 µM

Recorded TGI of CNC1=C(C)C(=O)C(=O)C([C@H](C)CCC=C(C)C)=C1O , please. > 100 µM

Recorded TGI of CCOC(=O)c1cnc2oc3ccc(O)cc3c2c1C , please. > 100 µM

Recorded TGI of COC(=O)C1(CCC(C)=O)CCCCCC1=O (centres undefined) , please. > 100 µM

Recorded TGI of O=C(Nc1ccc(Cl)cc1)NS(=O)(=O)c1coc2cc(F)ccc2c1=O , please. > 100 µM

Recorded TGI of C1=NCCN2CCN(CCN=Cc3ccc(cc3)OCc3cccc(n3)COc3ccc1cc3)CC2 , please. > 50 µM

Recorded TGI of Cc1ccc2nc(NC(=O)C(=O)C(C#N)c3nc4ccccc4s3)sc2c1 (centres undefined) , please. 90.9 µM

Recorded TGI of C/C(CC(=O)Nc1ccc([N+](=O)[O-])cc1)=N\NC(N)=O , please. > 100 µM

====

For each record, write down the corresponding TGI.
test system: NCI-H23 lung; test: NCI tumour cell line growth inhibition, 48 h

Recorded TGI of O=[N+]([O-])O.[Cu+2].[NH-]CC[NH-].[NH-]CC[NH-] , please. > 10 µM

Recorded TGI of O=C(CCCCCCCCC(=O)N/N=C\c1ccccc1O)N/N=C\c1ccccc1O , please. 21.9 µM

Recorded TGI of O=C([CH-]C(=O)c1ccccc1)c1ccccc1.O=C([CH-]C(=O)c1ccccc1)c1ccccc1.[La+3].[OH-].[OH3+] , please. 48.6 µM

Recorded TGI of CCOC(=O)c1cnc2oc3ccc(O)cc3c2c1C , please. > 100 µM

Recorded TGI of COc1ccc(-c2cc(=O)[nH]c3c(OC)c4ccccc4c(OC)c23)cc1 , please. > 100 µM

Recorded TGI of CCC[CH2][Sn]1([CH2]CCC)[O]C(=O)c2cccnc2[O]1 , please. 2.99 µM

Recorded TGI of CCOC(=O)C1=C(C)OC2(O)C=CC(O)=C3C(=O)N(c4ccccc4)C(=O)C312 (stereo not drawn) , please. > 100 µM

Recorded TGI of C/C(=N\NS(=O)(=O)c1ccc(C)cc1)C(CN1CCCCC1)C(c1ccccc1)c1c(O)c2ccccc2oc1=O (stereo not drawn) , please. > 100 µM

Recorded TGI of CS(=O)(=O)c1nc(-c2cc3c(c(S(C)(=O)=O)n2)CCC3)cc2c1CCCCC2 , please. > 100 µM

Recorded TGI of O=C(Nc1ccc(Cl)cc1)NS(=O)(=O)c1coc2cc(F)ccc2c1=O , please. > 100 µM

Recorded TGI of Clc1ccc(C2SCc3nc4ccccc4n32)c(Cl)c1 (stereo not drawn) , please. 25.1 µM

Recorded TGI of COc1cc(CSc2nc3ccc(C)cc3c(=O)n2-c2ccccc2)cc(OC)c1OC , please. > 100 µM

Recorded TGI of CCOc1ccc2c(c1)[n+]([O-])c(-c1ccc(Cl)cc1)c(N)[n+]2[O-] , please. > 100 µM

Recorded TGI of NC1=C(NC(=O)Cc2ccc(F)cc2)C(=O)c2ccccc2C1=O , please. 27.9 µM

Recorded TGI of CCSc1[nH]c(NC(=S)NC(=O)c2ccccc2Cl)c(C(N)=O)c1C(N)=O , please. > 10 µM

Recorded TGI of COc1cc(OC(=O)c2ccccc2)cc2c1C(=O)C=CC2=O , please. 33.3 µM

Recorded TGI of O=C(O)c1cc([N+](=O)[O-])cc2c(=O)c3cnccc3[nH]c12 , please. > 100 µM

Recorded TGI of COc1ccc2c3c1O[C@]1(C)C34CCN(C)C(C2)C42C=C[C@@]1(OC)c1c(O)ccc(O)c12 , please. > 100 µM

Recorded TGI of COc1ccc2n[se]nc2c1 , please. > 100 µM

Recorded TGI of CCOc1ccccc1N1C(=O)C(=O)C(c2nc3ccccc3o2)C(=O)C1=O , please. > 100 µM

Recorded TGI of COc1cc(O)c2c(=O)cc(-c3ccc(O)cc3O)oc2c1CC=C(C)C , please. 32.5 µM

Recorded TGI of Cc1cccc(C)c1NC(=O)C(C#N)C1=C(Cl)C(=O)c2ccccc2C1=O (stereo not drawn) , please. 44 µM

Recorded TGI of COc1ccc(/C(COc2ccc3c(=O)cc(-c4ccccc4)oc3c2)=N\O)cc1 , please. > 50 µM

====

tested on: OVCAR-4 ovarian; assay: NCI tumour cell line growth inhibition, 48 h; in the data active means GI50 below about 0.43 µM; inactive means the rest
The reply should be one of these categories: active, inactive

For C(#Cc1ccccc1C#Cc1cccs1)c1cccs1 , which call appears in the assay record? inactive

For COc1ccc(/C(COc2ccc3c(=O)cc(-c4ccccc4)oc3c2)=N\O)cc1 , which call appears in the assay record? inactive

For CCN(CC)CCCCNc1c2ccccc2[n+](C)c2c1[nH]c1ccccc12 , which call appears in the assay record? active

For COc1ccc(C(=O)OC2C(OC3C(O)COC(O[C@H]4C[C@H]5[C@@H]6CC=C7C[C@@H](O)CC[C@]7(C)[C@H]6CC[C@]5(C)[C@H]4[C@H](C)C(=O)CCC(C)C)C3OC(N)=O)OCC(O)C2O)cc1 (stereo not given in full) , which call appears in the assay record? inactive

For COc1ccc(-c2cc(=O)[nH]c3c(OC)c4ccccc4c(OC)c23)cc1 , which call appears in the assay record? inactive

For c1ccc2[nH]c(-c3ccc(-c4nccc5c4[nH]c4ccccc45)cc3)nc2c1 , which call appears in the assay record? inactive

For COc1cc2c(cc1C)NC(=O)/C2=C/c1ccccn1 , which call appears in the assay record? inactive

For CC(C)[C@H](N)C(=O)N1CCC[C@H]1B(O)O , which call appears in the assay record? inactive

For COc1ccc(-c2nc(-c3nc4ccc(OC)cc4[nH]3)c3ccccn23)cc1 , which call appears in the assay record? inactive

For C=C(C)C(=O)Nc1ccc(NC(C)C)cc1 , which call appears in the assay record? inactive

====

For each record, write down the corresponding GI50.
test system: TK-10 renal; test: NCI tumour cell line growth inhibition, 48 h

Recorded GI50 of C=C(C)C(=O)O[C@H]1CC(=C)[C@@H]2C[C@H](O)[C@](O)(CCl)[C@@H]2[C@H]2OC(=O)C(=C)[C@@H]21 , please. 512 nM

Recorded GI50 of CC/C=C1/C(=O)C=C[C@@H]1C/C=C\CCCC(=O)OC , please. 4070 nM

Recorded GI50 of COc1cc(CSc2nc3ccc(C)cc3c(=O)n2-c2ccccc2)cc(OC)c1OC , please. 8100 nM

Recorded GI50 of CC(C)(C)n1cc(-c2ccnc(NCCCNS(=O)(=O)c3ccc(C(F)(F)F)cc3)c2)c(-c2cccc(O)c2)n1 , please. 2310 nM

Recorded GI50 of COC(=O)c1nc(-c2ccccc2)oc1S(=O)(=O)Cc1ccccc1 , please. 1740 nM

Source of measurements: PubChem BioAssay (NCI)
